Every entry's value here was drawn from paper PMC8667902.

- Assay Explanation: PAMPA-BBB
- Condition Context: PAMPA
Endpoint: Papp

{"columns": ["Compound", "Endpoint", "Assay Value"],
 "data": [
  ["CCN(CCCCCCOc1ccc(/C=C/C(=O)c2c(O)cc(OC)c(O)c2OC)cc1)Cc1ccccc1OC [Compound 17f]", "Papp", "4.23 ×10⁻⁶ cm/s"]
]}

###

Listed below: SI = Selectivity index = IC50 (BuChE)/IC50 (AChE) values for each entry.
- Target Or Test System: ratAChE (Rattus norvegicus, UniProt P37136)
- Sequence (P37136 32-614): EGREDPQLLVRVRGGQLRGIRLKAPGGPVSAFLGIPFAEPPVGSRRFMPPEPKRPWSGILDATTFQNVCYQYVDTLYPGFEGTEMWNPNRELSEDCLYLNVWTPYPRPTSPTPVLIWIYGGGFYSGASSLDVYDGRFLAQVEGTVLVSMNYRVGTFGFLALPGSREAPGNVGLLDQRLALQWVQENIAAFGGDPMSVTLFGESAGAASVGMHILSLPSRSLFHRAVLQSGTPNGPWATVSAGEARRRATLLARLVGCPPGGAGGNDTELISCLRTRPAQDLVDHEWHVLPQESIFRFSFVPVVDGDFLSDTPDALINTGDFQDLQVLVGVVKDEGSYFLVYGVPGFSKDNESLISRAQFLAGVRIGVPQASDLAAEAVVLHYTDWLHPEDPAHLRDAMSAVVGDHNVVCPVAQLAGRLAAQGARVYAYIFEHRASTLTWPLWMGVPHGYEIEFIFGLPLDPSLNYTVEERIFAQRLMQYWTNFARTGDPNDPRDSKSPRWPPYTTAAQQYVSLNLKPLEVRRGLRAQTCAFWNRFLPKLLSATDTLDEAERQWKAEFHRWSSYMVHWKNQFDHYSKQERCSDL
- Assay Explanation: Ellman's method, AChE from rat cortex homogenate
- Type: biochemical
- Condition Context: ratBuChE over rat AChE
Endpoint: SI = Selectivity index = IC50 (BuChE)/IC50 (AChE)

{"columns": ["Molecule", "Assay Value"],
 "data": [
  ["COc1ccccc1CN(C)CCCCCCOc1ccc(/C=C/C(=O)c2c(O)cc(OC)c(O)c2OC)cc1 [Compound 17e]", ">357.1"],
  ["COc1ccccc1CN(C)CCCCCCOc1ccc(/C=C/C(=O)c2c(O)cc(OC)c(OC)c2OC)cc1", ">297.6"],
  ["CCN(CCCCOc1ccc(/C=C/C(=O)c2c(O)cc(OC)c(O)c2OC)cc1)Cc1ccccc1OC [Compound 17d]", 700],
  ["CCN(CC)CCCCOc1ccc(/C=C/C(=O)c2c(O)cc(OC)c(OC)c2OC)cc1", ">101.2"],
  ["CCN(CCCOc1ccc(/C=C/C(=O)c2c(O)cc(OC)c(OC)c2OC)cc1)Cc1ccccc1OC", ">746.3"],
  ["CCN(CCCCOc1ccc(/C=C/C(=O)c2c(O)cc(OC)c(OC)c2OC)cc1)Cc1ccccc1OC", 1409.4]
]}
